# assayed system: EphA2 extracellular domain fused to the Fc portion of an antibody (EphA2 Fc)
# Sequence (P29317 whole entry, the tested form may be a part): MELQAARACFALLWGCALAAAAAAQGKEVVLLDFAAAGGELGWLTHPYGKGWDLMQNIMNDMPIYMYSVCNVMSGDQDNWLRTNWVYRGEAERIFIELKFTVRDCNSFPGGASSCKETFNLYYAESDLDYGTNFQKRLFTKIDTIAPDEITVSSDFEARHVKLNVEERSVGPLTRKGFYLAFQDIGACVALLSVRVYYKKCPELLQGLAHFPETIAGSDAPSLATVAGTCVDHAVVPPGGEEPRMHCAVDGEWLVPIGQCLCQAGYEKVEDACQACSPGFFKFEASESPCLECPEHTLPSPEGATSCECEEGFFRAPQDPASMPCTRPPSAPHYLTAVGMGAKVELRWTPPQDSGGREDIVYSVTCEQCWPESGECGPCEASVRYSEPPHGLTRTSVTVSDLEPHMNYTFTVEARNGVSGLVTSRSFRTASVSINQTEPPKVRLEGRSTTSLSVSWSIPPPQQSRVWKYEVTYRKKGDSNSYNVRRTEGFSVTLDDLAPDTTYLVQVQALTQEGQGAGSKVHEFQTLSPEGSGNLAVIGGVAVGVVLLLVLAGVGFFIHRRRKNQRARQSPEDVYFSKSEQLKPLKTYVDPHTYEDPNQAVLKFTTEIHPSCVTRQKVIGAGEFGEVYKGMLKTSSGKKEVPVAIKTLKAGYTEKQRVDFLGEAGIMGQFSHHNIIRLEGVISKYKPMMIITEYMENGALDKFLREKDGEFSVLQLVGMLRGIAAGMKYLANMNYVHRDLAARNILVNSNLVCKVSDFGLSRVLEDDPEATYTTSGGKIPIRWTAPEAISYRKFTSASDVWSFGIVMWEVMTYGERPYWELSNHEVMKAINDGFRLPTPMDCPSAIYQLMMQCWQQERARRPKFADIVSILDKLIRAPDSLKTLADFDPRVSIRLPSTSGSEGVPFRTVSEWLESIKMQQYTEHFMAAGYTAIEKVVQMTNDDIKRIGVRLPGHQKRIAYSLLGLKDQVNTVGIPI
# measurement notes: ELISA, inhibition of ephrin-A5 AP binding to immobilized EphA2 Fc; representative experiment
Non-standard residues stand in square brackets, D forms with d. No end group written: not given here. βAla = NCCC(=O)O
measured metric: IC50 (nM)
Answer format: numeric, nM implied, no suffix.

Prompt: What IC50 value was documented for this binder, [βAla]WLAYPDSVPM-NH2 [βA-WLAam] ?
Completion: 680
